Test system: β-catenin-TCF-mediated reporter transcription activity in Colo 205 cells
Protocol: Colo 205 reporter assay (TCF/LEF luciferase)
Assay type: cell-based
Measurement Setup: Colo 205 TCF/LEF luciferase reporter, five hours after addition of compound; read-out: TCF reporter Colo205 IC50
pIC50: −log10 of the molar value.
Measured Metric: pIC50

Compound | Val
COCC1(C)C(=O)Nc2c(C)nc(NC3CN(C(=O)c4cc(F)c(F)c(F)c4)C3)nc2N1C (stereo not shown) | 5.30 to 6.00
Cc1nc(N[C@H]2CC[C@H](Oc3ccc(C(F)(F)F)nc3)C2)nc2c1NC(=O)[C@H](C)N2C (single isomer, unassigned) [Compound 377] | > 6.52
COCC1(C)C(=O)Nc2c(C)nc(NCc3cnn(Cc4ccc(C(F)(F)F)nc4)c3)nc2N1C (stereo not shown) | 6.00 to 6.52
Cc1nc(N[C@H]2C[C@@H](Cc3nc(C(F)(F)F)no3)C2)nc2c1NC(=O)[C@H](C(C)C)N2C | > 6.52

====

Tested on: β-catenin-TCF-mediated reporter transcription activity in Colo 205 cells
Protocol: Colo 205 reporter assay (TCF/LEF luciferase)
Assay type: cell-based
Measurement Setup: Colo 205 TCF/LEF luciferase reporter, five hours after addition of compound; read-out: TCF reporter Colo205 IC50
pIC50: −log10 of the molar value.
Measured Metric: pIC50

Structure Notation | System Tested | Val
Cc1nc(NCc2cnn(Cc3ccc(F)nc3)c2)nc2c1NC(=O)[C@H](C1CC1)N2C | β-catenin-TCF-mediated reporter transcription activity in Colo 205 cells | > 6.52
CO[C@H](C)[C@H]1C(=O)Nc2c(C)nc(N[C@H]3C[C@@H](Cc4nc(C(F)(F)F)no4)C3)nc2N1C | β-catenin-TCF-mediated reporter transcription activity in Colo 205 cells | 6.00 to 6.52
Cc1nc(N[C@H]2C[C@@H](COc3cnc(C(F)(F)F)nc3)C2)nc2c1NC(=O)[C@H](C(C)C)N2C | β-catenin-TCF-mediated reporter transcription activity in Colo 205 cells | > 6.52
Cc1nc(NCc2cnn(Cc3ccc(C(F)(F)F)nc3)c2)nc2c1NC(=O)[C@H](C)N2C | β-catenin-TCF-mediated reporter transcription activity in Colo 205 cells | > 6.52

====

Test system: DU4475 Control shRNA
Protocol: TCF reporter activity, DU4475 Control shRNA
Format: cell-based

Structure Notation | IC50 (µM)
Cc1nc(NCc2cnn(Cc3ccc(C(F)(F)F)nc3)c2)nc2c1NC(=O)[C@H](C)N2C | 0.09

====

Parameter pIC50: see the listing below.
Tested on: Hek293 empty vector
Protocol: In vitro cell viability (CellTiter-Glo), Hek293 empty vector
Format: cell-based
Measurement Setup: Hek293 empty vector; read-out: Hek293 empty vector viability
pIC50: −log10 of the molar value.

Compound | System Tested | pIC50
Cc1nc(N[C@H]2CC[C@H](Oc3ccc(C(F)(F)F)nc3)C2)nc2c1NC(=O)[C@H](C)N2C (single isomer, unassigned) [Compound 377] | Hek293 empty vector | ≤ 5.52
Cc1nc(NCc2cnn(Cc3ccc(F)nc3)c2)nc2c1NC(=O)[C@H](C1CC1)N2C [Compound 421] | Hek293 empty vector | ≤ 5.52
Cc1nc(NCc2cnn(Cc3ccc(C(F)(F)F)nc3)c2)nc2c1NC(=O)[C@H](C)N2C [Compound 136] | Hek293 empty vector | ≤ 5.52
